- test-system: Delta-type opioid receptor (Homo sapiens)
- method-notes: Inhibition of delta opioid receptor (unknown origin) at 10 uM relative to control
recorded-endpoint: inhibition (%)
# value in %; strip the unit string

q: Give reported inhibition value for Cl.NCc1ccc(OCc2cccc(F)c2)cc1
a: 18

q: Give reported inhibition value for Cl.NCc1ccc(OCc2ccc(F)cc2)cc1
a: 17

q: Give reported inhibition value for Cl.NCc1ccc(OCc2ccccc2)cc1
a: 22

q: Give reported inhibition value for Cl.NCc1ccc(OCc2cccc(OC(F)(F)F)c2)cc1
a: 0.9

q: Give reported inhibition value for Cl.NCc1ccc(OCc2cccc(Cl)c2)cc1
a: 17

q: Give reported inhibition value for Cl.NCc1ccc(OCc2ccccc2OC(F)(F)F)cc1
a: 23

q: Give reported inhibition value for Cl.NCc1ccc(OCc2ccc(Cl)cc2)cc1
a: 13

q: Give reported inhibition value for Cl.NCc1ccc(OCc2ccc(OC(F)(F)F)cc2)cc1
a: 21

q: Give reported inhibition value for Cl.NCc1ccc(OCc2ccccc2F)cc1
a: 17

====

Exercise: state measured inhibition for each of the compounds provided.
- test-system: UniProtKB P35462
- Sequence (P35462 whole entry): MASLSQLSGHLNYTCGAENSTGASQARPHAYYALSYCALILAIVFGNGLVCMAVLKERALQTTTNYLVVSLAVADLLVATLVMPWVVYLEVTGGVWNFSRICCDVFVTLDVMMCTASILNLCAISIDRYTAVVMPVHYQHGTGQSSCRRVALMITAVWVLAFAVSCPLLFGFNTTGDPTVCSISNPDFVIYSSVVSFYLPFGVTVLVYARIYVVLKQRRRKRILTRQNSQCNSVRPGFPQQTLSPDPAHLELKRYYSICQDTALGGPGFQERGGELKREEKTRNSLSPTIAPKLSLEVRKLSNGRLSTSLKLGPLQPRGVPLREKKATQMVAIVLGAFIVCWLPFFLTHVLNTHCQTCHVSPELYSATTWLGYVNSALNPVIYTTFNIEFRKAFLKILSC
- method-notes: Inhibition of dopaminergic D3 receptor (unknown origin) at 10 uM relative to control

q: Would you please give the reported inhibition of Cl.NCc1ccc(OCc2ccccc2)cc1 with UniProtKB P35462?
a: 14.3%

q: Would you please give the reported inhibition of Cl.NCc1ccc(OCc2cccc(F)c2)cc1 with UniProtKB P35462?
a: 14%

q: Would you please give the reported inhibition of Cl.NCc1ccc(OCc2cccc(OC(F)(F)F)c2)cc1 with UniProtKB P35462?
a: 33.5%

q: Would you please give the reported inhibition of Cl.NCc1ccc(OCc2ccccc2F)cc1 with UniProtKB P35462?
a: 24.1%

q: Would you please give the reported inhibition of Cl.NCc1ccc(OCc2ccc(Cl)cc2)cc1 with UniProtKB P35462?
a: 22.6%

q: Would you please give the reported inhibition of Cl.NCc1ccc(OCc2ccccc2OC(F)(F)F)cc1 with UniProtKB P35462?
a: 33.9%

q: Would you please give the reported inhibition of Cl.NCc1ccc(OCc2ccc(OC(F)(F)F)cc2)cc1 with UniProtKB P35462?
a: 13.3%

q: Would you please give the reported inhibition of Cl.NCc1ccc(OCc2ccc(F)cc2)cc1 with UniProtKB P35462?
a: 16.7%

q: Would you please give the reported inhibition of Cl.NCc1ccc(OCc2cccc(Cl)c2)cc1 with UniProtKB P35462?
a: 38.1%

====

- test-system: Alpha-2C adrenergic receptor (Homo sapiens)
- Sequence (whole entry): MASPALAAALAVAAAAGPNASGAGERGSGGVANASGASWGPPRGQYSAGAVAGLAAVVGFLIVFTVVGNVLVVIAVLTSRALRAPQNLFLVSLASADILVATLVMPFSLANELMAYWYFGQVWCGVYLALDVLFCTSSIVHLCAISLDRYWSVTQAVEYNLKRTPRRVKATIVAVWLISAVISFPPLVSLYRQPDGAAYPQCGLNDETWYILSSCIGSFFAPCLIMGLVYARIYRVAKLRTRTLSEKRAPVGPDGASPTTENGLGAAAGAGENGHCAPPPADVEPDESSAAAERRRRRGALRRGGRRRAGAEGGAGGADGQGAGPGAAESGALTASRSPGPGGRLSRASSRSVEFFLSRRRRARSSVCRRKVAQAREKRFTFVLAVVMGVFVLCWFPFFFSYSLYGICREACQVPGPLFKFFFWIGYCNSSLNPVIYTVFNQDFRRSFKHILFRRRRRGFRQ
- method-notes: Inhibition of adrenergic alpha-2C receptor (unknown origin) at 10 uM relative to control
recorded-endpoint: inhibition (%)
# value in %; strip the unit string

q: Give reported inhibition value for Cl.NCc1ccc(OCc2ccccc2)cc1
a: 47.6

q: Give reported inhibition value for Cl.NCc1ccc(OCc2ccc(F)cc2)cc1
a: 40.2

q: Give reported inhibition value for Cl.NCc1ccc(OCc2cccc(Cl)c2)cc1
a: 81.1

q: Give reported inhibition value for Cl.NCc1ccc(OCc2ccc(OC(F)(F)F)cc2)cc1
a: 42.2

q: Give reported inhibition value for Cl.NCc1ccc(OCc2cccc(OC(F)(F)F)c2)cc1
a: 46.6

q: Give reported inhibition value for Cl.NCc1ccc(OCc2ccc(Cl)cc2)cc1
a: 52.1

q: Give reported inhibition value for Cl.NCc1ccc(OCc2ccccc2F)cc1
a: 33

q: Give reported inhibition value for Cl.NCc1ccc(OCc2ccccc2OC(F)(F)F)cc1
a: 40.2

====

Exercise: state measured inhibition for each of the compounds provided.
- test-system: UniProt P18089
- Sequence (P18089 whole entry): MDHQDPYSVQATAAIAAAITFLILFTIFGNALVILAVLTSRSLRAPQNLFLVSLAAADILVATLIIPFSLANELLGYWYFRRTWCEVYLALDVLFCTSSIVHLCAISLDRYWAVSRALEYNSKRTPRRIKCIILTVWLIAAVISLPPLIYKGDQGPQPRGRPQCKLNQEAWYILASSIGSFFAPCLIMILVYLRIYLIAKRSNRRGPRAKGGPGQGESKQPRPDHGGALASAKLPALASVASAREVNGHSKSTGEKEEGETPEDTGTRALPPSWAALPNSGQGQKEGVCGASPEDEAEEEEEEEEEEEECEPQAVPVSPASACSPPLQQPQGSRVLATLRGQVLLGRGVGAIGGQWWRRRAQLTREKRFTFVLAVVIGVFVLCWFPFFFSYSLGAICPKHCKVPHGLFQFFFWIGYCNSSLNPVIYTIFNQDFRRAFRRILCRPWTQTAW
- method-notes: Inhibition of adrenergic alpha-2B receptor (unknown origin) at 10 uM relative to control
# value in %; strip the unit string

q: Give reported inhibition value for Cl.NCc1ccc(OCc2cccc(F)c2)cc1
a: 51.3

q: Give reported inhibition value for Cl.NCc1ccc(OCc2ccc(Cl)cc2)cc1
a: 51.6

q: Give reported inhibition value for Cl.NCc1ccc(OCc2cccc(Cl)c2)cc1
a: 72

q: Give reported inhibition value for Cl.NCc1ccc(OCc2cccc(OC(F)(F)F)c2)cc1
a: 44.3

q: Give reported inhibition value for Cl.NCc1ccc(OCc2ccccc2OC(F)(F)F)cc1
a: 29.5

q: Give reported inhibition value for Cl.NCc1ccc(OCc2ccc(F)cc2)cc1
a: 37

q: Give reported inhibition value for Cl.NCc1ccc(OCc2ccc(OC(F)(F)F)cc2)cc1
a: 49.9

q: Give reported inhibition value for Cl.NCc1ccc(OCc2ccccc2F)cc1
a: 30.9

q: Give reported inhibition value for Cl.NCc1ccc(OCc2ccccc2)cc1
a: 27.3

====

- test-system: Histamine H2 receptor (Homo sapiens) (UniProt P25021)
- Sequence (P25021 whole entry): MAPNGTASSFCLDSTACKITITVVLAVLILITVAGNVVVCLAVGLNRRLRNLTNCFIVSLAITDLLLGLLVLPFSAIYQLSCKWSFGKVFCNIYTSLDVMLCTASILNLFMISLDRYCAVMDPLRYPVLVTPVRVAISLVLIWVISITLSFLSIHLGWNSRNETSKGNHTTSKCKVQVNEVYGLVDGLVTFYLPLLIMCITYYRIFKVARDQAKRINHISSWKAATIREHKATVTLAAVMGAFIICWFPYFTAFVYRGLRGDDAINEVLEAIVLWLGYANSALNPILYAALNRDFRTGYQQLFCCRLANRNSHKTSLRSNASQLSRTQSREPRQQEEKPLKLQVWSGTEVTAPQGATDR
- method-notes: Inhibition of histamine H2 receptor (unknown origin) at 10 uM relative to control
recorded-endpoint: inhibition (%)
# value in %; strip the unit string

q: Give reported inhibition value for Cl.NCc1ccc(OCc2cccc(OC(F)(F)F)c2)cc1
a: 4.2

q: Give reported inhibition value for Cl.NCc1ccc(OCc2ccccc2F)cc1
a: 1.6

q: Give reported inhibition value for Cl.NCc1ccc(OCc2ccc(F)cc2)cc1
a: 29.7

q: Give reported inhibition value for Cl.NCc1ccc(OCc2ccc(OC(F)(F)F)cc2)cc1
a: -2.7

q: Give reported inhibition value for Cl.NCc1ccc(OCc2ccccc2)cc1
a: -4

q: Give reported inhibition value for Cl.NCc1ccc(OCc2ccc(Cl)cc2)cc1
a: 16.8

q: Give reported inhibition value for Cl.NCc1ccc(OCc2ccccc2OC(F)(F)F)cc1
a: 5.8

q: Give reported inhibition value for Cl.NCc1ccc(OCc2cccc(Cl)c2)cc1
a: -7.4

====

- Species on record: Rattus norvegicus
- method-notes: Inhibition of BZP receptor in rat brain at 10 uM relative to control
- Type: tissue-based
recorded-endpoint: inhibition (%)
# value in %; strip the unit string

q: Give reported inhibition value for Cl.NCc1ccc(OCc2ccccc2F)cc1
a: -1.5

q: Give reported inhibition value for Cl.NCc1ccc(OCc2cccc(F)c2)cc1
a: 25.8

q: Give reported inhibition value for Cl.NCc1ccc(OCc2ccccc2OC(F)(F)F)cc1
a: 5.9

q: Give reported inhibition value for Cl.NCc1ccc(OCc2ccc(Cl)cc2)cc1
a: 6.5

q: Give reported inhibition value for Cl.NCc1ccc(OCc2ccc(F)cc2)cc1
a: 8.9

q: Give reported inhibition value for Cl.NCc1ccc(OCc2cccc(Cl)c2)cc1
a: -4.4

q: Give reported inhibition value for Cl.NCc1ccc(OCc2ccc(OC(F)(F)F)cc2)cc1
a: 0.3

q: Give reported inhibition value for Cl.NCc1ccc(OCc2cccc(OC(F)(F)F)c2)cc1
a: 19.8

q: Give reported inhibition value for Cl.NCc1ccc(OCc2ccccc2)cc1
a: 12.7

====

- test-system: UniProt:P28335
- Sequence (whole entry): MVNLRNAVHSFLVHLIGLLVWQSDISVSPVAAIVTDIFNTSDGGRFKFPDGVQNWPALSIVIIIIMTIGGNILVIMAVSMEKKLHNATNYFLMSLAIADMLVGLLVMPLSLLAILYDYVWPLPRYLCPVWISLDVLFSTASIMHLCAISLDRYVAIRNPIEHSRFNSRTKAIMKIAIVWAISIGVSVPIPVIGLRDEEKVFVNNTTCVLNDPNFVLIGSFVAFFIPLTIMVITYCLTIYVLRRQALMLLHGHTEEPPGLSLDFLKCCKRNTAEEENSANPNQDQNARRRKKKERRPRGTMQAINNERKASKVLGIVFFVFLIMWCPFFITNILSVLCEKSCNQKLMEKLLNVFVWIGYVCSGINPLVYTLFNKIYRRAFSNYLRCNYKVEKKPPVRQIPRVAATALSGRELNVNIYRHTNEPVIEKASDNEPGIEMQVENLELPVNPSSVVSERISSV
- method-notes: Inhibition of 5-HT2C receptor (unknown origin) at 10 uM relative to control
Entry flag: t if inhibition reaches 30%; f if it does not.

q: In plain terms: is recorded inhibition at least 30% for Cl.NCc1ccc(OCc2ccc(Cl)cc2)cc1 ?
a: f

q: In plain terms: is recorded inhibition at least 30% for Cl.NCc1ccc(OCc2ccccc2F)cc1 ?
a: t

q: In plain terms: is recorded inhibition at least 30% for Cl.NCc1ccc(OCc2cccc(F)c2)cc1 ?
a: t

q: In plain terms: is recorded inhibition at least 30% for Cl.NCc1ccc(OCc2ccccc2OC(F)(F)F)cc1 ?
a: t

q: In plain terms: is recorded inhibition at least 30% for Cl.NCc1ccc(OCc2cccc(OC(F)(F)F)c2)cc1 ?
a: t

q: In plain terms: is recorded inhibition at least 30% for Cl.NCc1ccc(OCc2ccccc2)cc1 ?
a: t

q: In plain terms: is recorded inhibition at least 30% for Cl.NCc1ccc(OCc2cccc(Cl)c2)cc1 ?
a: f

q: In plain terms: is recorded inhibition at least 30% for Cl.NCc1ccc(OCc2ccc(OC(F)(F)F)cc2)cc1 ?
a: f

q: In plain terms: is recorded inhibition at least 30% for Cl.NCc1ccc(OCc2ccc(F)cc2)cc1 ?
a: f
